Origin of values: patent US5286864A

Target: muscarine receptors
Assay: Receptor bonding studies (radioligand L(+)cis-[2-methyl-^3 H]-N,N,N-trimethyl-1,3-dioxolane-4-methanammonium iodide)
Conditions: cerebral cortex (rat); radioligand L(+)cis-[2-methyl-^3 H]-N,N,N-trimethyl-1,3-dioxolane-4-methanammonium iodide NET-647
Catalogue of Ki readings, one per entry.

# compound, value-unit, Ki
data = [
    ("C#CCOC1CN2CCC1CC2 (centres unmarked)", "nM", 159),
    ("CCCOC1CN2CCC1CC2 (centres unmarked)", "nM", 220),
]
